Overview of reported viability, T/C across a group of compounds:
test system: 843782-103-R-J1-PDC complex spheroid viability; experiment: Anticancer human tumor 843782-103-R-J1-PDC patient-derived lung adenocarcinoma cell line growth inhibition [RAS]; conditions: second compound 0.1 µM; first compound 0.000949 µM; active compounds read low
measurement.name: viability, T/C (%)

compound | experimental.target | measurement.name | readout.units | test.result
CCc1c2c(nc3ccc(O)cc13)-c1cc3c(c(=O)n1C2)COC(=O)[C@]3(O)CC + C#Cc1c(F)ccc2cc(O)cc(-c3ncc4c(N5CC6CCC(C5)N6)nc(OCC56CCCN5CC(F)C6)nc4c3F)c12 | 843782-103-R-J1-PDC complex spheroid viability | viability, T/C | % | 104
CCc1c2c(nc3ccc(O)cc13)-c1cc3c(c(=O)n1C2)COC(=O)[C@]3(O)CC + C=CC(=O)N1CCN(c2nc(OCC3CCCN3C)nc3c(F)c(-c4nc(N)cc(C)c4C(F)(F)F)c(Cl)cc23)C(C)C1 | 843782-103-R-J1-PDC complex spheroid viability | viability, T/C | % | 73.6
CC1(C)CCC(Nc2ncc(C(F)(F)F)c(-c3c[nH]c4c(P(C)(C)=O)c(C#N)ccc34)n2)CN1 (centres undefined) + C#Cc1c(F)ccc2cc(O)cc(-c3ncc4c(N5CC6CCC(C5)N6)nc(OCC56CCCN5CC(F)C6)nc4c3F)c12 | 843782-103-R-J1-PDC complex spheroid viability | viability, T/C | % | 103
CC1(C)CCC(Nc2ncc(C(F)(F)F)c(-c3c[nH]c4c(P(C)(C)=O)c(C#N)ccc34)n2)CN1 (centres undefined) + C=CC(=O)N1CCN(c2nc(OCC3CCCN3C)nc3c(F)c(-c4nc(N)cc(C)c4C(F)(F)F)c(Cl)cc23)C(C)C1 | 843782-103-R-J1-PDC complex spheroid viability | viability, T/C | % | 87.8

---

tested on: 843782-103-R-J1-PDC complex spheroid viability; assay: Anticancer human tumor 843782-103-R-J1-PDC cell line growth inhibition [RAS]; conditions: second compound 0.000949 µM; first compound 0.00316 µM; active compounds read low;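 further: viability read after seven days of compound exposure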

compound | viability, T/C
CC(C)n1nc(-c2ccc3oc(N)nc3c2)c2c(N)ncnc21 + CCn1c(-c2cccnc2C(C)OC)c2c3cc(ccc31)N1CCOC(CC(NC(=O)C(C(C)C)N(C)C(=O)C3(F)CCN(C(=O)C#CC(C)(C)N(C)C)CC3)C(=O)N3CCCC(N3)C(=O)OCC(C)(C)C2)C1 | 55.4%
C=CC(=O)Nc1cc(Nc2nccc(-c3cn(C)c4ccccc34)n2)c(OC)cc1N(C)CCN(C)C + CCn1c(-c2cccnc2C(C)OC)c2c3cc(ccc31)N1CCOC(CC(NC(=O)C(C(C)C)N(C)C(=O)C3(F)CCN(C(=O)C#CC(C)(C)N(C)C)CC3)C(=O)N3CCCC(N3)C(=O)OCC(C)(C)C2)C1 | 75.9%
O=C(c1ccc(F)c(F)c1Nc1ccc(I)cc1F)N1CC(O)([C@@H]2CCCCN2)C1 + CCn1c(-c2cc(N3CCN(C)CC3)cnc2C(C)OC)c2c3cc(ccc31)-c1csc(n1)CC(NC(=O)C1CC1C)C(=O)N1CCCC(N1)C(=O)OCC(C)(C)C2 | 68.7%
C=CC(=O)Nc1cc(Nc2nccc(-c3cn(C)c4ccccc34)n2)c(OC)cc1N(C)CCN(C)C + CCn1c(-c2cc(N3CCN(C)CC3)cnc2C(C)OC)c2c3cc(ccc31)-c1csc(n1)CC(NC(=O)C1CC1C)C(=O)N1CCCC(N1)C(=O)OCC(C)(C)C2 | 81.5%

---

system: 843782-103-R-J1-PDC complex spheroid viability; assay: Anticancer human tumor 843782-103-R-J1-PDC cell line growth inhibition [RAS]; details: second compound 0.3 µM; first compound 1 µM; active compounds read low;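 further: viability read after seven days of compound exposure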
Overview of reported viability, T/C across a group of compounds:
measurement.name: viability, T/C

compound | test.result
CCN1CCN(Cc2ccc(Nc3ncc(F)c(-c4cc(F)c5nc(C)n(C(C)C)c5c4)n3)nc2)CC1 + CCn1c(-c2cc(N3CCN(C)CC3)cnc2C(C)OC)c2c3cc(ccc31)-c1csc(n1)CC(NC(=O)C1CC1C)C(=O)N1CCCC(N1)C(=O)OCC(C)(C)C2 | 12.3%
CC1(O)CCCC1n1c(=O)c(C(F)F)cc2cnc(NC3CCN(S(C)(=O)=O)CC3)nc21 (centres undefined) + CCn1c(-c2cc(N3CCN(C)CC3)cnc2C(C)OC)c2c3cc(ccc31)-c1csc(n1)CC(NC(=O)C1CC1C)C(=O)N1CCCC(N1)C(=O)OCC(C)(C)C2 | 10%
CC(C)NCC(C(=O)N1CCN(c2ncnc3c2C(C)CC3O)CC1)c1ccc(Cl)cc1 (centres undefined) + CCn1c(-c2cc(N3CCN(C)CC3)cnc2C(C)OC)c2c3cc(ccc31)-c1csc(n1)CC(NC(=O)C1CC1C)C(=O)N1CCCC(N1)C(=O)OCC(C)(C)C2 | 7.41%
CCC(CC)c1cc(NC2CCC(N)C2)n2nccc2n1 (centres undefined) + CCn1c(-c2cc(N3CCN(C)CC3)cnc2C(C)OC)c2c3cc(ccc31)-c1csc(n1)CC(NC(=O)C1CC1C)C(=O)N1CCCC(N1)C(=O)OCC(C)(C)C2 | 13.4%

---

system: 843782-103-R-J1-PDC complex spheroid viability; assay: Anticancer human tumor 843782-103-R-J1-PDC cell line growth inhibition [RAS]; conditions: second compound 0.03 µM; first compound 1 µM; active means viability on the fitted dose curve at most 10% of control; inactive means the rest;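 further: viability read after seven days of compound exposure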
Outcomes: yes (active), no (inactive)

compound | experimental.target | label.class
C[C@@H](NC(=O)c1ncnc(N)c1Cl)c1ncc(C(=O)Nc2cc(C(F)(F)F)c(Cl)cn2)s1 + CCn1c(-c2cccnc2C(C)OC)c2c3cc(ccc31)N1CCOC(CC(NC(=O)C(C(C)C)N(C)C(=O)C3(F)CCN(C(=O)C#CC(C)(C)N(C)C)CC3)C(=O)N3CCCC(N3)C(=O)OCC(C)(C)C2)C1 | 843782-103-R-J1-PDC complex spheroid viability | no
CC1(O)CCCC1n1c(=O)c(C(F)F)cc2cnc(NC3CCN(S(C)(=O)=O)CC3)nc21 (stereo not drawn) + CCn1c(-c2cc(N3CCN(C)CC3)cnc2C(C)OC)c2c3cc(ccc31)-c1csc(n1)CC(NC(=O)C1CC1C)C(=O)N1CCCC(N1)C(=O)OCC(C)(C)C2 | 843782-103-R-J1-PDC complex spheroid viability | no
Cc1nc(N2CCC3(CC2)COC(C)C3N)c(CO)nc1Sc1ccnc(N)c1Cl (stereo not drawn) + CCn1c(-c2cc(N3CCN(C)CC3)cnc2C(C)OC)c2c3cc(ccc31)-c1csc(n1)CC(NC(=O)C1CC1C)C(=O)N1CCCC(N1)C(=O)OCC(C)(C)C2 | 843782-103-R-J1-PDC complex spheroid viability | no
CC(=O)OC12COC1CC(O)C1(C)C(=O)C(O)C3=C(C)C(OC(=O)C(O)C(NC(=O)OC(C)(C)C)c4ccccc4)CC(O)(C(OC(=O)c4ccccc4)C21)C3(C)C (stereo not drawn) + CCn1c(-c2cc(N3CCN(C)CC3)cnc2C(C)OC)c2c3cc(ccc31)-c1csc(n1)CC(NC(=O)C1CC1C)C(=O)N1CCCC(N1)C(=O)OCC(C)(C)C2 | 843782-103-R-J1-PDC complex spheroid viability | yes
C=CC(=O)Nc1cc(Nc2nccc(-c3cn(C)c4ccccc34)n2)c(OC)cc1N(C)CCN(C)C + CCn1c(-c2cc(N3CCN(C)CC3)cnc2C(C)OC)c2c3cc(ccc31)-c1csc(n1)CC(NC(=O)C1CC1C)C(=O)N1CCCC(N1)C(=O)OCC(C)(C)C2 | 843782-103-R-J1-PDC complex spheroid viability | no
O=C(c1ccc(F)c(F)c1Nc1ccc(I)cc1F)N1CC(O)([C@@H]2CCCCN2)C1 + CCn1c(-c2cc(N3CCN(C)CC3)cnc2C(C)OC)c2c3cc(ccc31)-c1csc(n1)CC(NC(=O)C1CC1C)C(=O)N1CCCC(N1)C(=O)OCC(C)(C)C2 | 843782-103-R-J1-PDC complex spheroid viability | yes
CC1(O)CCCC1n1c(=O)c(C(F)F)cc2cnc(NC3CCN(S(C)(=O)=O)CC3)nc21 (stereo not drawn) + CCn1c(-c2cccnc2C(C)OC)c2c3cc(ccc31)N1CCOC(CC(NC(=O)C(C(C)C)N(C)C(=O)C3(F)CCN(C(=O)C#CC(C)(C)N(C)C)CC3)C(=O)N3CCCC(N3)C(=O)OCC(C)(C)C2)C1 | 843782-103-R-J1-PDC complex spheroid viability | no
CC(C)NCC(C(=O)N1CCN(c2ncnc3c2C(C)CC3O)CC1)c1ccc(Cl)cc1 (stereo not drawn) + CCn1c(-c2cccnc2C(C)OC)c2c3cc(ccc31)N1CCOC(CC(NC(=O)C(C(C)C)N(C)C(=O)C3(F)CCN(C(=O)C#CC(C)(C)N(C)C)CC3)C(=O)N3CCCC(N3)C(=O)OCC(C)(C)C2)C1 | 843782-103-R-J1-PDC complex spheroid viability | no
